# Test system: NCI-H522
# PROTOCOL: NCI tumour cell line growth inhibition, 48 h
Calls of active or inactive are those of the source. No stated cut-off is given here; in the data, active = GI50 up to about 1.1 µM and inactive = higher.
Answer with one of the outcomes given here: active, inactive

The following compounds have reported results that may help.
O=C(/C=C/c1ccccc1O)c1cccnc1    inactive
COc1ccc2c(c1)CCC(CN1CCN(CCOC(c3ccccc3)c3ccccc3)CC1)C2O (centres undefined)    inactive
Cc1cc2nnc(C(N)=O)c(N)c2cc1C    inactive

Which result was noted for this compound in the test: CC#Cc1c(C#CC)c(OC)c2c(c1OC)C(=O)c1ccccc1C2=O inactive

Dear all, I need the recorded test outcome for C[C@H](CCC1=NCCN1)[C@H]1CC[C@H]2[C@@H]3CC[C@@H]4C[C@H](O)CC[C@]4(C)[C@H]3CC[C@]12C , thank you. inactive

// return assay outcome for COc1cc(OC2OC(COC(=O)c3cc(O)c(O)c(O)c3)C(O)C(O)C2O)ccc1O (centres undefined) inactive

Assay outcome for CCOC(=O)Cc1csc(Nc2ccc(OCC)cc2)n1 : what was it? inactive

Which result was noted for this compound in the test: COc1ccc2c(c1)CC1c3c(cc4c(c3-2)OCO4)CCN1C (centres undefined) inactive

Entry CCOC(=N)CC(=O)Nc1ccc(Cl)cc1 : call = ? inactive

Assay result, entry CC1(C)C[C@H]2C=C(C=O)[C@]34C[C@]3(C(=O)OC4O)[C@H]2C1 (some centres undefined) — outcome? active

Can you look up the reported call for CC1(c2nc3ccccc3[nH]2)CCC(CO)C(C)(C)O1 (centres undefined) for me? inactive

---

For each entry below, report its GI50 value.
# Tested on: A549
# PROTOCOL: NCI tumour cell line growth inhibition, 48 h
Activity calls are given as the source filed them. Cut-off read from the data, not from the text of the source: active = GI50 up to about 1.1 µM and inactive = higher.

O=C(c1ccco1)N(C(=S)OCCOc1ccccc1)c1ccccc1    30.8 µM (inactive)
Oc1cnnc2nc3ccccc3n12    > 100 µM (inactive)
CCCC1=NC(C(F)(F)F)(C(F)(F)F)N=C(N2CCOCC2)O1    > 100 µM (inactive)
Cc1cc2cc(Cl)ccc2nc1C(=O)c1ccccc1    > 100 µM (inactive)

Output GI50 of Cc1cc2c(cc1-c1cc3c(cc1C)C(C(C)C)=C(O)C(=O)/C3=C\Nc1c3ccccc3nc3ccccc13)/C(=C/Nc1c3ccccc3nc3ccccc13)C(=O)C(O)=C2C(C)C 2.97 µM (inactive)

---

# Tested on: RXF 631
# PROTOCOL: NCI tumour cell line growth inhibition, 48 h
Active and inactive are the calls of the source. Rule as the data show it: active = GI50 up to about 1.1 µM and inactive = higher.
MEASURED_METRIC: GI50

O=C(O)CCC1CCc2cccc3occ1c23 (stereo unspecified)    > 100 µM (inactive)
O=C(O)CCC(=O)N1C/C(=C\c2ccccc2)C(=O)/C(=C/c2ccccc2)C1    3.66 µM (inactive)
O=C(/C=C/c1ccccc1)c1ccc(Cl)cc1Cl    38 µM (inactive)
O=C(COc1ccc(Cl)cc1)N1N=C(c2ccc([N+](=O)[O-])o2)CC1(O)c1ccccc1 (stereo unspecified)    7.87 µM (inactive)
CCCCC1CC(c2cccc([N+](=O)[O-])c2)=NO1 (stereo unspecified)    80.7 µM (inactive)

Provide GI50 value for the following compound: Cc1cc2cc(Cl)ccc2nc1C(=O)c1ccccc1 > 100 µM (inactive)

---

# Test system: SNB-19
# PROTOCOL: NCI tumour cell line growth inhibition, 48 h
The source made the active and inactive calls. Rule as the data show it: active = GI50 up to about 1.1 µM and inactive = higher.
I'd appreciate it if you could supply GI50 values for the items below.

Reference set, count: 5
C=C(CN(C)C)C1(c2ccccc2)CC2(CCCC2)C(=O)O1 (stereo not drawn)    > 100 µM (inactive)
CS(C)(=O)=N/C=C\C(=O)C(Cl)(Cl)Cl    > 100 µM (inactive)
CCOC(=O)C1(Cc2ccccc2)Cc2cc3c(cc2C1)CCC3    55.8 µM (inactive)
NC(C(=O)O)C(O)c1c[nH]cn1 (stereo not drawn)    > 100 µM (inactive)
Oc1c(CN2CCOCC2)ccc2cccnc12    > 10 µM (inactive)

Hi there! I need GI50 for each item below, if you can.
1. COc1cc(C2C(Cl)C(=O)N2NC(=O)Cc2ccccc2)cc(Br)c1O (stereo not drawn)
2. CC(C)OP(=O)(OC(C)C)c1ccc2c(c1)OCCOCCOCCOCCO2
3. S=C(NCCc1ccccn1)N/N=C(\c1ccccc1)c1ccccn1
4. C=C1C[C@]23CCC4C(C)(C)C(=O)CC[C@]4(C)C2C[C@H]1C(O)C3=O (stereo partly drawn)
5. N#CCc1nnc(N)o1
6. COP(=O)(OC)C(Nc1ccc(Cc2ccc(NC(c3ccco3)P(=O)(OC)OC)cc2)cc1)c1ccco1 (stereo not drawn)
7. CCCCN(CC)c1nc(C)nc2c1c(C)c(C)n2-c1c(C)cc(C)cc1C
8. O=C1C=C(Cl)C(=O)C(c2ccc(Cl)cc2)=C1

> 100 µM (inactive)
> 100 µM (inactive)
5.43 µM (inactive)
> 75 µM (inactive)
> 100 µM (inactive)
11.9 µM (inactive)
16.4 µM (inactive)
89.3 µM (inactive)

Give GI50 for each listed item.
1. CCOC(=O)c1ncn(CCc2ccc(Cl)cc2)c1C
2. CN1CCc2c(sc3ncn(N)c(=N)c23)C1

1. > 100 µM (inactive)
2. > 100 µM (inactive)

Record GI50 per entry; entries follow.
1. COc1ccc(/C=N/n2cnc3[nH]c(C)c(Cc4ccccc4)c3c2=N)cc1
2. O=C(O)CN1C(=O)OC(c2ccccc2)C1=O (stereo not drawn)

1: > 100 µM (inactive); 2: > 100 µM (inactive)
